Tested on: Epidermal growth factor receptor (Homo sapiens), P00533 [L861Q]
Sequence (P00533 whole entry L861Q): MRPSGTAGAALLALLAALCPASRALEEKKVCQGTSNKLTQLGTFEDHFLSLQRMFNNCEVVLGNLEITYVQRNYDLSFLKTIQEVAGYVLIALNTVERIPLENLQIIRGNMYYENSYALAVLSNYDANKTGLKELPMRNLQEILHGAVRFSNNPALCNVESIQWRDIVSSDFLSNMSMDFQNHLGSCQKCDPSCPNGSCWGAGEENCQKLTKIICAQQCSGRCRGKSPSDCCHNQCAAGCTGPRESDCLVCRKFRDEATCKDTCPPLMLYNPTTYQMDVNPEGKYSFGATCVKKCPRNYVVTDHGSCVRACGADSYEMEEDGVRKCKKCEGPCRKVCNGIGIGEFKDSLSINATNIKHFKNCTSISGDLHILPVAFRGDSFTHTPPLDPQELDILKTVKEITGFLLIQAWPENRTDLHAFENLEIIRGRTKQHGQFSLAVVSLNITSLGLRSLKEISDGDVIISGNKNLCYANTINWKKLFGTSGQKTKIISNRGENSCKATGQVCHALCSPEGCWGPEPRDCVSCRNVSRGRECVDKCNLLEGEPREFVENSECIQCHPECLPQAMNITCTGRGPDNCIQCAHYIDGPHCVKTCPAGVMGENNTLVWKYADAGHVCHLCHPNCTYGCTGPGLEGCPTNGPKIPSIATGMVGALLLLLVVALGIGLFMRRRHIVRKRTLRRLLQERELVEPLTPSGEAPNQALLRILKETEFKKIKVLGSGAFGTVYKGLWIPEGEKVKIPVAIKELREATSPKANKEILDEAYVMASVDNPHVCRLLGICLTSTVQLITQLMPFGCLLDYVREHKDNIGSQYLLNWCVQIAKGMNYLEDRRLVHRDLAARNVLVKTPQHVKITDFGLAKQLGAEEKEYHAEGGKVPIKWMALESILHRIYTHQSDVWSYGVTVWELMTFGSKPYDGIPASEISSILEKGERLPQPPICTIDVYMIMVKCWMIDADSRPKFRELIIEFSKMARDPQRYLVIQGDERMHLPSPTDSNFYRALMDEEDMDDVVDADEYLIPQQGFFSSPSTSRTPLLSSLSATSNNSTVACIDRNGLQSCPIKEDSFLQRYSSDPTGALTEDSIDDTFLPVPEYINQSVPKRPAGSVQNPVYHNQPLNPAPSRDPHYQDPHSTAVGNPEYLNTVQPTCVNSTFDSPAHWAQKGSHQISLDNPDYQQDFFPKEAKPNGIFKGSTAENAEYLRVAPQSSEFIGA
test.settings: at 1 µM
Entries and their measured inhibition follow.
Provide only the numeric value, understood in %.

Please review the following examples before continuing.
compound.structure	assayed.target	inhibition [%]
NC(=O)Cc1ccccc1Oc1nccc(-c2c(-c3ccc(F)cc3)ncn2C2CCNCC2)n1	Epidermal growth factor receptor (Homo sapiens), P00533 [L861Q]	-0.04
CN(C)c1ccc2c(c1)/C(=C/Nc1ccc(S(N)(=O)=O)cc1)C(=O)N2	Epidermal growth factor receptor (Homo sapiens), P00533 [L861Q]	2.51
COc1cc2ncn(-c3cc(OCc4ccccc4C(F)(F)F)c(C(C)=O)s3)c2cc1OC	Epidermal growth factor receptor (Homo sapiens), P00533 [L861Q]	0.09
COc1cccc(/C=N/Nc2ncnc3c2cnn3-c2cccc(OC)c2)c1	Epidermal growth factor receptor (Homo sapiens), P00533 [L861Q]	4.05

Consider now this further molecule.
Requested read-out inhibition, target or system Epidermal growth factor receptor (Homo sapiens), P00533 [L861Q], entry CN(c1ccc(NC(=O)Nc2c(Cl)cccc2Cl)cc1)c1ccnc(Nc2cccc(CS(C)(=O)=O)c2)n1 7.45

====

assayed.target: RAC-alpha serine/threonine-protein kinase (Homo sapiens) (UniProt P31749);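 note: reported values are mean inhibition figures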
Sequence (P31749 whole entry): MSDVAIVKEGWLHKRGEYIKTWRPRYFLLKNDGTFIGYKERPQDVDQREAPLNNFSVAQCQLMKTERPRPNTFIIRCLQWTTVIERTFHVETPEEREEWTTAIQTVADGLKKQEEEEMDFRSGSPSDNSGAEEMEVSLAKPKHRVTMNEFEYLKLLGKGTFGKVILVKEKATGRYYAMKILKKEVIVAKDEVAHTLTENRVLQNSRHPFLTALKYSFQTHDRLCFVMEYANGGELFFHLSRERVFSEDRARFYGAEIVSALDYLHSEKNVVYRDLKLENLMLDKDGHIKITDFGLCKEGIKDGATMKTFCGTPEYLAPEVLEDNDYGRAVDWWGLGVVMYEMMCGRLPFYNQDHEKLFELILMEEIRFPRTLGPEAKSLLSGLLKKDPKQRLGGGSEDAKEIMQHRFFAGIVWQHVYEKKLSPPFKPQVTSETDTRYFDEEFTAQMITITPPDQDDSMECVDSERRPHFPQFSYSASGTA
test.settings: at 0.1 µM
experimental.readout: inhibition
Remember to quote the unit after the number.

Please review the following examples before continuing.
compound.structure	reading
NS(=O)(=O)c1ccc(Nc2cc(-c3ccc(O)c(F)c3)n[nH]2)cc1	-3.05%
NC(=O)Cc1ccccc1Oc1nccc(-c2c(-c3ccc(F)cc3)ncn2C2CCNCC2)n1	0.16%
FC(F)(F)c1cccc(Nc2nccc(-c3cnn4nc(-c5ccccc5)ccc34)n2)c1	0.83%
NC(=O)c1cc(-c2ccc(F)cc2)cc(-c2ccncc2)c1N	0.92%
COc1cc(N2CCN(C(C)C)CC2)ccc1Nc1nc(Nc2ccc(F)cc2C(=O)NC[C@@H](O)CO)c2cc[nH]c2n1	-3.58%
CCc1ccc(Oc2nccc(-c3c(-c4ccc(F)cc4)ncn3C3CCNCC3)n2)cc1	2.02%
C[C@@H](Oc1cc(-n2cnc3ccc(OCC4CCN(C)CC4)cc32)sc1C(N)=O)c1ccccc1Cl	0.75%
CS(=O)(=O)CCNCc1cc(-c2cc3c(Nc4ccc(OCc5cccc(F)c5)c(Cl)c4)ncnc3s2)cs1	0.79%

Need inhibition of NS(=O)(=O)c1ccc(N/N=C2\C(=O)Nc3ccc(C(=O)NCCCn4ccnc4)cc32)cc1 , thanks. -0.12%

Also CCS(=O)(=O)c1ccc(OC)c(Nc2ncc(-c3cccc(-c4ccccc4F)c3)o2)c1 , if possible. -0.24%

====

assayed.target: Fibroblast growth factor receptor 4 (Homo sapiens);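 note: values are mean percent inhibition of FGFR4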
test.settings: at 0.1 µM
Entries and their measured inhibition follow.
Provide only the numeric value, understood in %.

Please review the following examples before continuing.
compound	assayed.target	readout.units	reading
CS(=O)(=O)CCNCc1cc(-c2cc3c(Nc4ccc(OCc5cccc(F)c5)c(Cl)c4)ncnc3s2)cs1	Fibroblast growth factor receptor 4 (Homo sapiens)	%	5.68
COc1ccc2cc(-c3c(-c4ccncc4)nc(-c4ccc([S+](C)[O-])cc4C)n3C)ccc2c1 (stereo unspecified)	Fibroblast growth factor receptor 4 (Homo sapiens)	%	2.92
c1ccc(-c2n[nH]cc2-c2ccnc(-c3ccc(OCCN4CCOCC4)cc3)c2)nc1	Fibroblast growth factor receptor 4 (Homo sapiens)	%	4.68
COc1cc2ncn(-c3cc(OCCc4ccccc4)c(C(N)=O)s3)c2cc1OC	Fibroblast growth factor receptor 4 (Homo sapiens)	%	-0.14

Need inhibition of COc1ccc(-c2ccc3c(NC(=O)C4CC4)n[nH]c3n2)cc1 , thanks. -0.34

Also C/C(Nc1ccc(S(N)(=O)=O)cc1)=C1/C(=O)Nc2ccccc21 , if possible. 1.73

Also COc1ccc2ncn(-c3cc(O[C@H](C)c4ccccc4Cl)c(C(N)=O)s3)c2c1 , if possible. -1.86

Also COc1cc(Nc2ncc3c(C)nc(-c4cccc(Oc5ccccc5)c4)n3n2)cc(OC)c1OC , if possible. 1.38

Ref: ChEMBL document CHEMBL1961873
